MEASUREMENT_NOTES: Solubility in phosphate buffered saline
Assay type: physicochemical
CONDITION_LABEL: 10 mM phosphate buffered saline (0.138 M NaCl, 2.7 mM KCl), pH 7.4

| COMPOUND | Solubility (mg/mL) PBS |
| --- | --- |
| CC(C)CC(C(=O)NC1C(=O)NC(CC(N)=O)C(=O)NC2C(=O)NC3C(=O)NC(C(=O)NC(C(=O)O)c4cc(O)cc(O)c4-c4cc3ccc4O)C(OC3CC(C)(N)C(O)C(C)O3)c3ccc(c(Cl)c3)Oc3cc2cc(c3OC2OC(CO)C(O)C(O)C2OC2CC(C)(NCc3ccc(-c4ccc(Cl)cc4)cc3)C(O)C(C)O2)Oc2ccc(cc2Cl)C1O)N(C)C(=O)CCC(=O)N(CC(=O)O)CC(=O)O (stereo not shown) | 5.5 mg/mL |
| CNC(CC(C)C)C(=O)NC1C(=O)NC(CC(N)=O)C(=O)NC2C(=O)NC3C(=O)NC(C(=O)NC(C(=O)SCC(=O)NCCCN)c4cc(O)cc(O)c4-c4cc3ccc4O)C(OC3CC(C)(N)C(O)C(C)O3)c3ccc(c(Cl)c3)Oc3cc2cc(c3OC2OC(CO)C(O)C(O)C2OC2CC(C)(NCc3ccc(-c4ccc(Cl)cc4)cc3)C(O)C(C)O2)Oc2ccc(cc2Cl)C1O (stereo not shown) | ≧100 mg/mL |
| CC(C)CC(C(=O)NC1C(=O)NC(CC(N)=O)C(=O)NC2C(=O)NC3C(=O)NC(C(=O)NC(C(=O)O)c4cc(O)cc(O)c4-c4cc3ccc4O)C(OC3CC(C)(NC(=O)OCOC(=O)C(N)CCCCN)C(O)C(C)O3)c3ccc(c(Cl)c3)Oc3cc2cc(c3OC2OC(CO)C(O)C(O)C2OC2CC(C)(NCc3ccc(-c4ccc(Cl)cc4)cc3)C(O)C(C)O2)Oc2ccc(cc2Cl)C1O)N(C)C(=O)OCOC(=O)C(N)CCCCN (stereo not shown) | <0.5 mg/mL |
| CNC(CC(C)C)C(=O)NC1C(=O)NC(CC(N)=O)C(=O)NC2C(=O)NC3C(=O)NC(C(=O)NC(C(=O)OCC[N+](C)(C)C)c4cc(O)cc(O)c4-c4cc3ccc4O)C(OC3CC(C)(N)C(O)C(C)O3)c3ccc(c(Cl)c3)Oc3cc2cc(c3OC2OC(CO)C(O)C(O)C2OC2CC(C)(NCc3ccc(-c4ccc(Cl)cc4)cc3)C(O)C(C)O2)Oc2ccc(cc2Cl)C1O (stereo not shown) | ≧100 mg/mL |

====

Test system: S. aureus strain ATCC13709
MEASUREMENT_NOTES: Neutropenic mouse thigh infection model
Assay type: in vivo, mice
CONDITION_LABEL: neutropenic mice, 10 mg/kg one hour after inoculation, 24 h postinfection
EXPERIMENTAL_ENDPOINT: Recovered bacterial titers per thigh, 10 mg/kg (Log10 CFU/thigh)
Write the answer as a number in Log10 CFU/thigh, unit excluded.

Give its Recovered bacterial titers per thigh, 10 mg/kg value. Item: CNC(CC(C)C)C(=O)NC1C(=O)NC(CC(N)=O)C(=O)NC2C(=O)NC3C(=O)NC(C(=O)NC(C(=O)SCC(=O)NCCCN)c4cc(O)cc(O)c4-c4cc3ccc4O)C(OC3CC(C)(N)C(O)C(C)O3)c3ccc(c(Cl)c3)Oc3cc2cc(c3OC2OC(CO)C(O)C(O)C2OC2CC(C)(NCc3ccc(-c4ccc(Cl)cc4)cc3)C(O)C(C)O2)Oc2ccc(cc2Cl)C1O (stereo not shown)
4.45

Data origin, for the record: patent US8901072B2
